target: ErbB-4 receptor-Ig fusion (homodimer) (human, UniProt Q15303 26-651; Q15303 26-640); assay: displacement of 125I-HRG-β1 177-244 from plate-bound ErbB-4-Ig
Sequence (Q15303 other isoform, or with tags, fused parts or gaps): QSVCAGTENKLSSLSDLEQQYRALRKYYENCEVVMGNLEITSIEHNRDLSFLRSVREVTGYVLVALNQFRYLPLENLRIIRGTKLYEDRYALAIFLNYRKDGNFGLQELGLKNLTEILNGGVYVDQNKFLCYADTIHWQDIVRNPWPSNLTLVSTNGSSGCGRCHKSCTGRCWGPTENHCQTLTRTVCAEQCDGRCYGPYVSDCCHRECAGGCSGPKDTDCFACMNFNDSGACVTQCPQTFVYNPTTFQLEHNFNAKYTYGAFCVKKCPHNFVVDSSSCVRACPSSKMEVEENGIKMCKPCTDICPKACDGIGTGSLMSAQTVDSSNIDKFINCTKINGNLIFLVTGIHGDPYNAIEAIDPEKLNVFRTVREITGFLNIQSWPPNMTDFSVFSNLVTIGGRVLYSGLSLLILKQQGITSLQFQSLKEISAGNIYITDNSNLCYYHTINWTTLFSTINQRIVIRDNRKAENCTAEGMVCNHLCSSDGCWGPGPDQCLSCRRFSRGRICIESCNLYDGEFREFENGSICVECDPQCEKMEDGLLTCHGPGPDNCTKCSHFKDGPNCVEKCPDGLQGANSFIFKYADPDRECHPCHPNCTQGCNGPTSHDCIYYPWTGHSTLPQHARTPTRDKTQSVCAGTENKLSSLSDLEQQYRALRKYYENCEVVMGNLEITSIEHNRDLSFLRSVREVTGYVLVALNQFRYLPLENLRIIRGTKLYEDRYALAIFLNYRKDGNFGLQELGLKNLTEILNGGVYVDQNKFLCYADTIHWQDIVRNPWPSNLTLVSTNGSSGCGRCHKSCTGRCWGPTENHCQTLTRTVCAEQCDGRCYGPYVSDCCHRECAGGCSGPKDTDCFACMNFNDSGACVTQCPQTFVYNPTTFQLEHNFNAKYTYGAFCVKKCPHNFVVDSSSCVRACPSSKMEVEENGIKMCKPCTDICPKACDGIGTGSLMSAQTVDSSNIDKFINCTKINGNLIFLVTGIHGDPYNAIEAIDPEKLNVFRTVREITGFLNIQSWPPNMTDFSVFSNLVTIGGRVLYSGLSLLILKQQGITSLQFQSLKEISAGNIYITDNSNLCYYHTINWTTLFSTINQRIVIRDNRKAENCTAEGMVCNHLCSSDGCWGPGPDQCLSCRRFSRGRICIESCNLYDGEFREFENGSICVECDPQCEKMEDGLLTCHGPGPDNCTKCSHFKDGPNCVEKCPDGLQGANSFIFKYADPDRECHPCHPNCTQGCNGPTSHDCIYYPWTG
property-measured: EC50 (nM)
Answer in nM, number only, no unit symbol.

Answered examples (3):
binder	unit-descriptor	EC50
Trx-HRG-β1 146-244 E195A fusion (soluble) (ligand) AYVSSESPIRISVSTEGANTSSSTSTSTTGTSHLVKCAEKEKTFCVNGGACFMVKDLSNPSRYLCKCPNEFTGDRCQNYVMASFYKHLGIEFMEAEELY	nM	13.2
Trx-HRG-β1 146-244 T217A fusion (soluble) (ligand) AYVSSESPIRISVSTEGANTSSSTSTSTTGTSHLVKCAEKEKTFCVNGGECFMVKDLSNPSRYLCKCPNEFAGDRCQNYVMASFYKHLGIEFMEAEELY	nM	32.7
Trx-HRG-β1 146-244 L179A fusion (soluble) (ligand) AYVSSESPIRISVSTEGANTSSSTSTSTTGTSHAVKCAEKEKTFCVNGGECFMVKDLSNPSRYLCKCPNEFTGDRCQNYVMASFYKHLGIEFMEAEELY	nM	51.7

Switching to the query record.
Incoming: Find the recorded EC50 belonging to Trx-HRG-β1 146-244 P205A fusion (soluble) (ligand) AYVSSESPIRISVSTEGANTSSSTSTSTTGTSHLVKCAEKEKTFCVNGGECFMVKDLSNASRYLCKCPNEFTGDRCQNYVMASFYKHLGIEFMEAEELY and report it.
Outgoing: 34.2
